# EXPERIMENTAL_PROTOCOL: Solubility
# Format: physicochemical
# SETTINGS: alcohols
MEASUREMENT_LABEL: solubility in alcohols

For orientation, consider the following solved cases.
MOL: COc1ccc(-c2cnn(CC(N)=O)c(=O)n2)cc1
solubility in alcohols: Insoluble
--
MOL: COc1ccc(-c2cnn(CCCN(C)C)c(=O)n2)cc1
solubility in alcohols: Soluble
--
MOL: COc1ccc(C(=O)Cn2ncc(-c3ccc(OC)cc3)nc2=O)cc1
solubility in alcohols: Insoluble
--
MOL: CCOC(=O)CCCn1ncc(-c2ccc(C)cc2)nc1=O
solubility in alcohols: Soluble
--
MOL: COc1ccc(-c2cnn(CC(=O)c3ccc(Cl)cc3Cl)c(=O)n2)cc1
solubility in alcohols: Insoluble
--
MOL: CCC(=O)Cn1ncc(-c2ccc(OC)cc2)nc1=O
solubility in alcohols: Insoluble

Consider the additional compound presented here.
Incoming: Data request, read-out solubility in alcohols, for COc1ccc(-c2cnn(CCCCCN3CCC(O)CC3)c(=O)n2)cc1
Outgoing: Soluble

====

# EXPERIMENTAL_PROTOCOL: Solubility
# Format: physicochemical
# SETTINGS: chloroform

COMPOUND: COc1ccc(-c2cnn(CCN3CCN(c4cccc(C(F)(F)F)c4)CC3)c(=O)n2)cc1
solubility in chloroform: Soluble

COMPOUND: CCOC(=O)CC(C(=O)OCC)n1ncc(-c2ccc(OC)cc2)nc1=O (centres unmarked)
solubility in chloroform: Soluble

COMPOUND: CC(=O)Cn1ncc(-c2ccc(O)cc2)nc1=O
solubility in chloroform: Insoluble

COMPOUND: CC(=O)Cn1ncc(-c2ccc(OC3CCOC3=O)cc2)nc1=O (centres unmarked)
solubility in chloroform: Insoluble

====

# EXPERIMENTAL_PROTOCOL: Solubility
# Assay type: physicochemical
# SETTINGS: ether
Where a name gives a salt, the structure may show the parent alone.
MEASUREMENT_LABEL: solubility in ether

For orientation, consider the following solved cases.
MOLECULE: CC(=O)c1ccc(N2CCN(CCCn3ncc(-c4ccc(C)cc4)nc3=O)CC2)cc1
solubility in ether: insoluble
//
MOLECULE: Cc1ccc(-c2cnn(CCCN3CCN(c4cccc(Cl)c4)CC3)c(=O)n2)cc1 [Example 14, hydrochloride]
solubility in ether: insoluble
//
MOLECULE: CCOc1ccc(-c2cnn(CC(C)=O)c(=O)n2)cc1
solubility in ether: insoluble
//
MOLECULE: Cc1ccc(-c2cnn(CCCCN3CCN(c4cccc(Cl)c4)CC3)c(=O)n2)cc1
solubility in ether: insoluble
//
MOLECULE: COc1ccc(-c2cnn(CC(=O)C(C)C)c(=O)n2)cc1
solubility in ether: poorly soluble
//
MOLECULE: CC(=O)Cn1ncc(-c2ccccc2)nc1=O
solubility in ether: insoluble

Incoming: Data request, read-out solubility in ether, for COc1ccc(-c2cnn(CC(N)=O)c(=O)n2)cc1
Outgoing: Insoluble

Incoming: Data request, read-out solubility in ether, for COc1ccc(-c2cnn(CCCCCN3CCN(c4cccc(Cl)c4)CC3)c(=O)n2)cc1
Outgoing: insoluble

Incoming: Data request, read-out solubility in ether, for CC(=O)Cn1ncc(-c2ccc(OC3CCOC3=O)cc2)nc1=O (stereo not shown)
Outgoing: Insoluble

Incoming: Data request, read-out solubility in ether, for Cc1ccc(-c2cnn(C(CCO)C(=O)O)c(=O)n2)cc1 (stereo not shown)
Outgoing: insoluble

Incoming: Data request, read-out solubility in ether, for CC(=O)Cn1ncc(-c2cccs2)nc1=O
Outgoing: insoluble

Incoming: Data request, read-out solubility in ether, for COc1ccc(-c2cnn(C(C(=O)c3ccccc3)c3ccccc3)c(=O)n2)cc1 (stereo not shown)
Outgoing: poorly soluble

Incoming: Data request, read-out solubility in ether, for CC(=O)Cn1ncc(-c2ccc(C)cc2)nc1=O
Outgoing: insoluble

Incoming: Data request, read-out solubility in ether, for COc1ccc(-c2cnn(CCO)c(=O)n2)cc1
Outgoing: insoluble

====

# EXPERIMENTAL_PROTOCOL: Solubility
# Format: physicochemical
# SETTINGS: benzene

MOLECULE: COc1ccc(-c2cnn(CCCN(C)C)c(=O)n2)cc1
solubility in benzene: Soluble

MOLECULE: CCOC(=O)CC(C(=O)OCC)n1ncc(-c2ccc(OC)cc2)nc1=O (stereo not drawn)
solubility in benzene: Soluble

Source: patent US4851411A
